FYI, the data here is from ChEMBL document CHEMBL1201862.

test system: HCC 2998; assay: NCI tumour cell line growth inhibition, 48 h
Active and inactive are the calls of the source. Cut-off read from the data, not from the text of the source: active = GI50 up to about 1.1 µM and inactive = higher.
Give one outcome, nothing more. List: TRUE = active, FALSE = inactive

Answered examples (6):
COc1ccc(OC)c(SC(CC(=O)c2ccccc2)c2ccccc2)c1 (stereo not given) ... FALSE
CC1=C(C(=O)Nc2ccccc2C)C(c2ccc(N(C)C)cc2)C(C(=O)Nc2ccccc2C)=C(C)N1 ... FALSE
CCc1cccc(C(C)(C)C)c1NC(=S)N/C=C(/C#N)C(N)=O ... FALSE
CCOC(=O)C1=C(C)N(Cc2ccccc2)C2(O)C(OC)CC(=O)C3C(=O)N(c4ccccc4)C(=O)C132 (stereo not given) ... FALSE
CN(C)CCNC(=O)c1cccc2c1nc(-c1ccccn1)c1ccccc12 ... FALSE
CN[C@@H](Cc1cccc2ccccc12)C(=O)N[C@@H](CC(C)C)B(O)O ... TRUE

Request: Please let me know the test result on file for c1cc(C2=NCCO2)c2ccsc2c1 .
Result: FALSE

Request: // return assay outcome for CO[C@H]1C[C@@H]2CC[C@@H](C)[C@@](O)(O2)C(=O)C(=O)N2CCCC[C@H]2C(=O)O[C@H]([C@H](C)C[C@@H]2CC[C@@H](OC(=O)C(C)(CO)CO)[C@H](OC)C2)CC(=O)[C@H](C)/C=C(\C)[C@@H](O)[C@@H](OC)C(=O)[C@H](C)C[C@H](C)/C=C/C=C/C=C/1C
Result: FALSE

Request: Called result for Nc1nc(CCl)nc(Nc2ccccc2)n1
Result: FALSE

Request: Hi team, can someone confirm the assay call for CCOC(=O)/C(C#N)=C/c1ccc2c(c1)CC1(C2)Cc2cc(CC)c(C(C)O)cc2C1 (stereo not given) ?
Result: FALSE

====

tested on: SF-268; experiment: NCI tumour cell line growth inhibition, 48 h
Activity calls are given as the source filed them. No stated cut-off is given here; in the data, active = GI50 up to about 1.1 µM and inactive = higher.
Your answer must be one of the following: Y = active, N = inactive

O=c1cc(NNc2ccc(F)cc2)[nH]c(=O)[nH]1 ... N
COC(=O)c1ccc(C)cc1CC1Cc2ccc(C)cc2C1=O (stereo not given) ... N
COc1ccc2c(c1)CCc1c-2n(CCN2CCOCC2)c2ccc(OC)cc12 ... N
COc1cccc(-c2cc(O)c3cc(OC)ccc3n2)c1 ... Y
OCCCNc1ccnc2cc(Cl)ccc12 ... N
CCOC(=O)Cn1c(=O)c2cc(C)cc3c(Cl)nc4c(OC)c(OC)cc1c4c32 ... N

Request: Tell me the recorded outcome of this test for O=C(OC(/C=C/c1ccccc1)P1(=O)N(Cc2ccccc2)[C@@H]2CCCC[C@H]2N1Cc1ccccc1)c1ccccc1 (stereo not given in full) .
Result: N

Request: GET /call?item= CCOc1c2c(cc3c1C(=O)c1c(OC)cccc1C3=O)C=C(OC)CC2 returns the recorded outcome of this test.
Result: N

Request: What classification did CCOC(=O)c1c(SC(=O)c2ccc(OC)cc2)n(-c2ccccc2)c(=S)n(-c2ccccc2)c1=O end up with in this test?
Result: N

Request: Called result for O=C1OC(c2ccccc2)=N/C1=C\c1ccc(Oc2ccc(Cl)c(Cl)c2)cc1
Result: N

Request: What is the recorded call for this molecule in the test? CN(C)CCNC(=O)c1cccc2c1Oc1c(cccc1[N+](=O)[O-])O2
Result: N

Request: // return assay outcome for CNc1ncnc2c1cnn2CCCCO
Result: N

Request: Which outcome did this test record for the molecule COC1OC(C)/C(=N/O)C2OC(C)(C)OC12 (stereo not given) ?
Result: N

Request: Given Cc1cc(O)c(C(C)C)cc1/N=C/c1ccccc1O , state the outcome it received in this test.
Result: N

Request: Look up the recorded call for COc1cc(C2SCC(=O)N2c2ccc(-c3ccc(-n4c(-c5ccccc5)nc5ccccc5c4=O)cc3)cc2)cc(OC)c1OC (stereo not given) in this test.
Result: N

Request: Just curious, what result did CN(C)NC1=C([N+](=O)[O-])C=NN(c2ccccc2)C1 get here?
Result: N
